assay_comment: inhibition of endothelial tube formation, primary screen, imaging, VEGF stimulated, CD31 staining, tube area, NPC library (AID 1117340)
protocol_conditions: VEGF-stimulated ADSC/ECFC co-culture, at 10 µM, active compounds read high
property_measured: tube area decrease (%)
State the answer as a number, implicitly in %.

[Q] Could you tell me which tube area decrease is on file for Cn1nnc2c(C(N)=O)ncn2c1=O ?
[A] 26.7

[Q] Could you tell me which tube area decrease is on file for C[C@H]1O[C@@H](n2cc(F)c(=O)[nH]c2=O)[C@H](O)[C@@H]1O ?
[A] 22.2

[Q] Could you tell me which tube area decrease is on file for Nc1ccc(S(=O)(=O)Nc2cnc3ccccc3n2)cc1 ?
[A] -18.5

[Q] Could you tell me which tube area decrease is on file for CN(C)CCOC(=O)C(c1ccccc1)C1(O)CCCC1 (centres undefined) ?
[A] -3.4
